assay: Thermodynamic solubility of the compound at pH 7; format: physicochemical; settings: buffer, read-out: Therm_solubility
reported endpoint: solubility thermodynamic (µM)

Sample answers from the record:
smiles structure	reading unit	solubility thermodynamic
CN(OCCO)C(=O)c1n[nH]c2c1CN(C(=O)Nc1cccc(Cl)c1)CC2	µM	161
C[C@@H]1Cc2nn3c(c2CN1C(=O)Nc1ccc(F)c(C#N)c1)C(=O)N(C)O[C@@H](CF)C3	µM	63

1 = C[C@@H]1Cc2nn3c(c2CN1C(=O)Nc1ccc(F)c(C#N)c1)C(=O)N(C)O[C@@H](C(=O)N(C)CC(F)F)C3
2 = C[C@@H]1Cc2nn3c(c2CN1C(=O)Nc1ccc(F)c(Cl)c1)C(=O)N(C)O[C@@H](CN(C)C)C3
Inquiry: Form field 'greater solubility thermodynamic' accepts 1 or 2 ; which applies? Please respond with the label that marks your chosen entry.
Reply text: 2

###

experiment: AUC (0 to infinity) in Mongrel dog at 2.5 mg/kg, po; format: ADME, organism-based, Canis lupus familiaris; parameters: time infinity, dose 2.5 mg/kg, route po; settings: in vivo
reported endpoint: AUC(0-inf) (ng·h/mL)
Field format: number, assumed ng·h/mL, no unit text.

smiles structure	AUC(0-inf) / ng·h/mL
C[C@@H]1Cc2nn3c(c2CN1C(=O)Nc1ccc(F)c(C#N)c1)C(=O)N(C)O[C@@H](COCC(F)F)C3	10600

--- query ---
Input C[C@@H]1Cc2nn3c(c2CN1C(=O)Nc1ccc(F)c(C#N)c1)C(=O)N(C)O[C@@H](CF)C3 . Output AUC(0-inf): 9550

###

experiment: Cmax in Mongrel dog at 2.5 mg/kg, po; assay type: ADME, organism-based, Canis lupus familiaris; set-up: dose 2.5 mg/kg, route po; details: in vivo
reported endpoint: Cmax (ng/mL)
Give the quantity in ng/mL, number only.

smiles structure	Cmax, ng/mL
C[C@@H]1Cc2nn3c(c2CN1C(=O)Nc1ccc(F)c(C#N)c1)C(=O)N(C)O[C@@H](CF)C3	1310

Now consider the entry below.
Record C[C@@H]1Cc2nn3c(c2CN1C(=O)Nc1ccc(F)c(C#N)c1)C(=O)N(C)O[C@@H](COCC(F)F)C3 . Reported Cmax: 1170

###

experiment: Tmax in Mongrel dog at 2.5 mg/kg, po; assay type: ADME, organism-based, Canis lupus familiaris; conditions: in vivo
In this section, each of the molecules is paired with its reported Tmax.
Return type: number; implicit unit min.

smiles structure	numeric readout
C[C@@H]1Cc2nn3c(c2CN1C(=O)Nc1ccc(F)c(C#N)c1)C(=O)N(C)O[C@@H](COCC(F)F)C3	45

--- query ---
Record C[C@@H]1Cc2nn3c(c2CN1C(=O)Nc1ccc(F)c(C#N)c1)C(=O)N(C)O[C@@H](CF)C3 , field Tmax: 60

###

assay: Oral bioavailability in Mongrel dog at 2.5 mg/kg; assay type: ADME, organism-based, Canis lupus familiaris; conditions: in vivo
reported endpoint: bioavailability (%)
The reply should contain only the number, in %.

smiles structure	numeric readout
C[C@@H]1Cc2nn3c(c2CN1C(=O)Nc1ccc(F)c(C#N)c1)C(=O)N(C)O[C@@H](CF)C3	79

Consider the additional compound presented here.
Documented bioavailability of C[C@@H]1Cc2nn3c(c2CN1C(=O)Nc1ccc(F)c(C#N)c1)C(=O)N(C)O[C@@H](COCC(F)F)C3 : 70

Source listed as ChEMBL document CHEMBL5053507.
